biological target: RPM; assay: ELISA; printed as ng/uL
Entries and their EC50
Field format: number, assumed µg/mL, no unit text.

Completed entries (count: 3):
BINDER	UNIT_SYMBOL	EC50
14N4 (antibody, V domains shown) VH: QVQLVESGGGLIQPGGSLRLSCAVSGFTVSSKYMTWVRQAPGKGLEWVSVIYGGGSTYYADSVVGRFTISRDNSKNTLYLQMNSLRAEDTAVYYCASRLGVRATTGDLDYWGQGTLVTVSS VL: QIVMTQSPSTLSASVGDRVTITCRASQSISSWLAWYQQKPGKAPKLLIYDASSLESGVPSRFSGSGSGTEFTLTISSLQPDDFATYYCQQYNTYSWWTFGQGTKVEIK	µg/mL	7.4
Palivizumab (antibody, V domains shown) VH: QVTLRESGPALVKPTQTLTLTCTFSGFSLSTSGMSVGWIRQPPGKALEWLADIWWDDKKDYNPSLKSRLTISKDTSKNQVVLKVTNMDPADTATYYCARSMITNWYFDVWGAGTTVTVSS VL: DIQMTQSPSTLSASVGDRVTITCKCQLSVGYMHWYQQKPGKAPKLLIYDTSKLASGVPSRFSGSGSGTEFTLTISSLQPDDFATYYCFQGSGYPFTFGGGTKLEIK	µg/mL	26.1
13A8 (antibody, V domains shown) VH: QVQLVESGGGVVQPGKSLRLSCAASGYIFSSYDMHWVRQAPGKGLEWVAVISFDGTTQHYADSVRGRFTVSRDNSQNTVFLQMNSLRPEDTAVYYCVKEYVIVSTFFDYWGQGTLVTVSS VL: DIVMTQSPSSLSASVGDRVTITCRASQGIRNALGWYQHKPGKAPKVLIYAASRLQSGVPSRFSGSGSGTDFTLTISSLQPEDFATYYCLQDFNYPWTFGHGTKVEIK	µg/mL	14.8

Here is another binder to look at.
Supply EC50 value. Item: Motavizumab (antibody, V domains shown) VH: QVTLRESGPALVKPTQTLTLTCTFSGFSLSTAGMSVGWIRQPPGKALEWLADIWWDDKKHYNPSLKDRLTISKDTSKNQVVLKVTNMDPADTATYYCARDMIFNFYFDVWGQGTTVTVSS VL: DIQMTQSPSTLSASVGDRVTITCSASSRVGYMHWYQQKPGKAPKLLIYDTSKLASGVPSRFSGSGSGTEFTLTISSLQPDDFATYYCFQGSGYPFTFGGGTKVEIK
16.7
